Form field: Population Tubulin-Different-Phenotype (%) (one value per entry).
- Tested on: U2OS
- protocol: Multiplex assay against U2OS
- Format: toxicity, cell-based
- condition.context: human, 24 h, 1 µM, compound concentration 1 uM, replicate 2
observable: Population Tubulin-Different-Phenotype (%)

compound | unit | recorded.value
Cc1[nH]c(/C=C2\C(=O)Nc3ccc(S(=O)(=O)N(C)c4cccc(Cl)c4)cc32)c(C)c1C(=O)N1CCN(C)CC1 | % | 55
Cn1cc(C2=C(c3cn(C4CCN(Cc5ccccn5)CC4)c4ccccc34)C(=O)NC2=O)c2ccccc21 [ENZASTAURIN] | % | 17
O=C1NCN(c2ccccc2)C12CCN(CCCOc1ccc(F)cc1)CC2 [SPIRAMIDE] | % | 7
Cn1cc(-c2[nH]c3cc(NC(=O)[C@H](N)C4CCCCC4)cc4c3c2C=NNC4=O)cn1 | % | 15
c1cn2cc(-c3ccc4cn[nH]c4c3)nc(Nc3ccc(N4CCOCC4)cc3)c2n1 [ENTOSPLETINIB] | % | 21
Cc1nc(Nc2n[nH]c3c2CN(C(=O)N[C@H](CN(C)C)c2ccccc2)C3(C)C)c2sccc2n1 [PF-03758309] | % | 33
Cc1nc(-c2ccc(-c3ccc(C(=O)N4CCc5cc6c(cc54)C4(CCN(C)CC4)CO6)cc3)c(C)c2)no1 [SB-224289] | % | 22
CC(C)C(=O)Nc1n[nH]c2cc(-c3cccc(NS(=O)(=O)C4CC4)c3)ccc12 | % | 35

Every entry's value here was drawn from ChEMBL document CHEMBL4689842.
